Here the recorded collision cross section is given for each entry.
Assay: collision cross section (N2, base ion); higher = larger ion cross section
Express it in Å²; write the number only.

Answered examples (3):
[[record]]
compound = "ClC1C(Cl)C(Cl)C(Cl)C(Cl)C1Cl (stereo not drawn) [α-Hexachlorocyclohexane] (APCI source condition: Dry, base ion: [M-H2Cl3]+)"
measured_metric = "collision cross section"
measurement = 137.25

[[record]]
compound = "ClC1CCCC(Br)(Br)C(Cl)(C2=CCCC2)C(Cl)(Cl)C1(Cl)Cl (stereo unspecified) [Hexachlorocyclopentenyl-dibromocyclooctane] (APCI source condition: Dry, base ion: [M-CH4Cl2Br]+)"
measured_metric = "collision cross section"
measurement = 152.06

[[record]]
compound = "Clc1ccccc1-c1ccccc1Cl [PCB 4] (APCI source condition: Dry, base ion: M+.)"
measured_metric = "collision cross section"
measurement = 137.64


Quick check: collision cross section of CCCCCCOP(=O)(OCCCCCC)OCCCCCC [Trihexyl phosphate] (APCI source condition: Wet, base ion: [M+H]+) ? 201

Quick check: collision cross section of ClC1=C(Cl)C2(Cl)C3C4CC(C5OC45)C3C1(Cl)C2(Cl)Cl (stereo unspecified) [Endrin] (APCI source condition: Wet, base ion: [M+H]+) ? 157.95

Quick check: collision cross section of Clc1ccc(-c2cc(Cl)c(Cl)cc2Cl)cc1Cl [PCB 118] (APCI source condition: Dry, base ion: M+.) ? 156.06

====

Here the recorded GC retention time is given for each entry.
Assay: GC retention time (DB-5MS, GC-APCI); higher = later elution
Express it in min; write the number only.

Answered examples (4):
[[record]]
molecule = "O=S1OC[C@@H]2[C@H](CO1)[C@@]1(Cl)C(Cl)=C(Cl)[C@]2(Cl)C1(Cl)Cl (stereo partly drawn) [α-Endosulfan] (APCI source condition: Wet, base ion: [M+H]+)"
measured_metric = "GC retention time"
measurement = 18.9

[[record]]
molecule = "c1ccc2c(c1)sc1ccccc12 [Dibenzothiophene] (APCI source condition: Dry, base ion: M+.)"
measured_metric = "GC retention time"
measurement = 15.2

[[record]]
molecule = "ClC1C(Cl)C(Cl)C(Cl)C(Cl)C1Cl (stereo not given) [γ-Hexachlorocyclohexane] (APCI source condition: Dry, base ion: [M-H2Cl3]+)"
measured_metric = "GC retention time"
measurement = 15.2

[[record]]
molecule = "Clc1cc(Cl)c(-c2c(Cl)c(Cl)cc(Cl)c2Cl)cc1Cl [PCB 187] (APCI source condition: Dry, base ion: M+.)"
measured_metric = "GC retention time"
measurement = 21.1


# input for lookup
Quick check: GC retention time of Clc1ccc(Cl)c(-c2cc(Cl)ccc2Cl)c1 [PCB 52] (APCI source condition: Dry, base ion: M+.) ? 17.1

====

Here the recorded GC retention time is given for each entry.
Test: GC retention time (DB-5MS, GC-APCI); higher = later elution
Don't forget the unit after the value.

Answered examples (3):
[[record]]
molecule = "Clc1cc(Cl)c(-c2ccc(Cl)c(Cl)c2Cl)cc1Cl [PCB 138] (APCI source condition: Dry, base ion: M+.)"
measurement = "20.8 min"

[[record]]
molecule = "Brc1ccc(Oc2ccc(Br)cc2Br)c(Br)c1 [PBDE 47] (APCI source condition: Dry, base ion: M+.)"
measurement = "22.2 min"

[[record]]
molecule = "Brc1cccc(Oc2ccc(Br)c(Br)c2)c1 [PBDE 35] (APCI source condition: Dry, base ion: M+.)"
measurement = "20.3 min"


Quick check: GC retention time of ClC(Cl)=C(c1ccc(Cl)cc1)c1ccc(Cl)cc1 [4,4'-DDE] (APCI source condition: Dry, base ion: M+.) ? 19.3 min

Quick check: GC retention time of c1ccc2c(c1)ccc1cc3c(ccc4ccccc43)cc12 [Dibenzo(a,h)anthracene] (APCI source condition: Dry, base ion: M+.) ? 27.2 min

Quick check: GC retention time of O=S1OC[C@@H]2[C@H](CO1)[C@]1(Cl)C(Cl)=C(Cl)[C@]2(Cl)C1(Cl)Cl (stereo partly drawn) [β-Endosulfan] (APCI source condition: Wet, base ion: [M+H]+) ? 20 min

Quick check: GC retention time of ClC1=C(Cl)[C@]2(Cl)[C@H]3[C@H]([C@H]4C=C[C@@H]3C4)[C@@]1(Cl)C2(Cl)Cl [Isodrin] (APCI source condition: Dry, base ion: M+.) ? 18 min

Quick check: GC retention time of Clc1ccc(C(c2ccc(Cl)cc2)C(Cl)(Cl)Cl)cc1 [4,4'-DDT] (APCI source condition: Dry, base ion: [M-CCl3]+) ? 20.8 min

Quick check: GC retention time of ClC1=C(Cl)C2(Cl)C3C4CC(C5OC45)C3C1(Cl)C2(Cl)Cl (stereo unspecified) [Endrin] (APCI source condition: Wet, base ion: [M+H]+) ? 19.4 min

Quick check: GC retention time of c1ccc2c(c1)cc1ccc3cccc4ccc2c1c34 [Benzo(a)pyrene] (APCI source condition: Dry, base ion: M+.) ? 24.8 min

====

Assay: GC retention time (DB-5MS, GC-APCI); higher = later elution
MEASURED METRIC: GC retention time (min)
Express it in min; write the number only.

Answered examples (4):
[[record]]
compound = "Brc1ccc(Oc2c(Br)cc(Br)cc2Br)c(Br)c1 [PBDE 100] (APCI source condition: Dry, base ion: M+.)"
measured_metric = "GC retention time"
endpoint_unit = "min"
measurement = 23.7

[[record]]
compound = "Brc1c(Br)c(Br)c(Br)c(Br)c1Br [Hexabromobenzene] (APCI source condition: Dry, base ion: M+.)"
measured_metric = "GC retention time"
endpoint_unit = "min"
measurement = 21.8

[[record]]
compound = "Brc1ccc(Br)c(Oc2c(Br)c(Br)c(Br)c(Br)c2Br)c1 [PBDE 185] (APCI source condition: Dry, base ion: M+.)"
measured_metric = "GC retention time"
endpoint_unit = "min"
measurement = 28.6

[[record]]
compound = "ClC1=C(Cl)C2(Cl)[C@H]3[C@@H]4O[C@@H]4[C@H](Cl)[C@H]3C1(Cl)C2(Cl)Cl (stereo partly drawn) [Heptachlor-exo-epoxide] (APCI source condition: Dry, base ion: [M-H]+)"
measured_metric = "GC retention time"
endpoint_unit = "min"
measurement = 18.2


Quick check: GC retention time of Clc1cc(Cl)c(-c2cc(Cl)c(Cl)c(Cl)c2Cl)cc1Cl [PCB 180] (APCI source condition: Dry, base ion: M+.) ? 22

====

Here the recorded GC retention time is given for each entry.
Test: GC retention time (DB-5MS, GC-APCI); higher = later elution

Answered examples (5):
[[record]]
compound = "Clc1ccc(Cl)c(Cl)c1Cl [1,2,3,4-Tetrachlorobenzene] (APCI source condition: Dry, base ion: M+.)"
measurement = "9.99 min"

[[record]]
compound = "CCCCCCCCCCCCCCCCC(F)(F)C(F)(F)C(F)(F)C(F)(F)C(F)(F)C(F)(F)C(F)(F)C(F)(F)C(F)(F)C(F)(F)F [1-(Henicosafluorodecyl)hexadecane] (APCI source condition: Dry, base ion: [M-H]+)"
measurement = "17.6 min"

[[record]]
compound = "CCCCC(CC)COP(=O)(Oc1ccccc1)Oc1ccccc1 (stereo unspecified) [2-Ethylhexyl diphenyl phosphate] (APCI source condition: Wet, base ion: [M-C8H15]+)"
measurement = "21.3 min"

[[record]]
compound = "O=P(OCCCl)(OCCCl)OCCCl [Tris(2-chloroethyl) phosphate] (APCI source condition: Wet, base ion: [M+H]+)"
measurement = "15.1 min"

[[record]]
compound = "c1ccc2c(c1)-c1cccc3cccc-2c13 [Fluoranthene] (APCI source condition: Dry, base ion: M+.)"
measurement = "18.4 min"


Quick check: GC retention time of Clc1ccc(C(c2ccccc2Cl)C(Cl)Cl)cc1 (stereo unspecified) [2,4'-DDD] (APCI source condition: Dry, base ion: [M-CHCl2]+) ? 19.4 min

Quick check: GC retention time of Clc1ccccc1-c1ccccc1Cl [PCB 4] (APCI source condition: Dry, base ion: M+.) ? 13.6 min

Quick check: GC retention time of Brc1ccc(Oc2ccc(Br)cc2Br)cc1 [PBDE 28] (APCI source condition: Dry, base ion: M+.) ? 20.1 min

Quick check: GC retention time of CCCCC(CC)COC(=O)c1cc(Br)c(Br)c(Br)c1Br (stereo unspecified) [2-Ethylhexyl-2,3,4,5-tetrabromobenzoate] (APCI source condition: Dry, base ion: C7H3Br4O2+) ? 24.2 min

Quick check: GC retention time of Clc1ccc(Cl)c(-c2cc(Cl)c(Cl)cc2Cl)c1 [PCB 101] (APCI source condition: Dry, base ion: M+.) ? 18.8 min

Quick check: GC retention time of Clc1c(Cl)c(Cl)c(Cl)c(Cl)c1Cl [Hexachlorobenzene] (APCI source condition: Dry, base ion: M+.) ? 14.6 min
